molecular target: Shh-N in conditioned medium (human, UniProt Q15465 24-197, N-terminal palmitoyl modification; lacks the C-terminal cholesterol moiety); assay: cell-based or functional assay
measured.quantity: % Inh of Gli1 reporter, CM N = 3

1H10 (antibody, V domains shown, fully human XenoMouse hybridoma antibody; tested as hybridoma supernatant and as purified antibody; also called MAb 1H10) VH: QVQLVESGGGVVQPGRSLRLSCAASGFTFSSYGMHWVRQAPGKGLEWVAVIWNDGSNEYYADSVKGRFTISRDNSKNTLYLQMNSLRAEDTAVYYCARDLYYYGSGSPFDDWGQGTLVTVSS VL: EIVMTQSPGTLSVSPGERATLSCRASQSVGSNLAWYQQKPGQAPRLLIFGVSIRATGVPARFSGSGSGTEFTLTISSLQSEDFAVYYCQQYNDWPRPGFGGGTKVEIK | 28%

Input line: Which % Inh of Gli1 reporter, CM N = 3 is listed for 4B6 (antibody, V domains shown, fully human XenoMouse hybridoma antibody; tested as hybridoma supernatant and as purified antibody; also called MAb 4B6) VH: QVQLVESGGGVVQPGRSLRLSCAASGFTFSTYGMHWVRQAPGKGLEWVAVIWYDGSNEYYADSVKGRFTISRDNSKNTLYLQMNSLRAEDTAVYYCARDLYYYGSGSPFDYWGQGTLVTVSS VL: EIVMTQSPATLSVSPGERATLSCRASQSVSSNLAWYQQKPGQAPRLLIFGISIRATGIPARFSGSGSGTEFTLTISSLQSEDFAVYYCQQYNDWPRPGFGGGTRVEIK ?
Output line: 22%

Attribution: patent US20120328625A1
